Biological target: T1, recombinant His-tagged full-length ERG (UniProt P11308 1-479, biotinylated with NHS-PEG4 biotin for the OctetRED assays)
T1 construct: mature; Baculovirus expression in SF9 cells, Ni-NTA purified; also called wild-type ERG; wtERG; not shown: His tag
T1 sequence (looked up): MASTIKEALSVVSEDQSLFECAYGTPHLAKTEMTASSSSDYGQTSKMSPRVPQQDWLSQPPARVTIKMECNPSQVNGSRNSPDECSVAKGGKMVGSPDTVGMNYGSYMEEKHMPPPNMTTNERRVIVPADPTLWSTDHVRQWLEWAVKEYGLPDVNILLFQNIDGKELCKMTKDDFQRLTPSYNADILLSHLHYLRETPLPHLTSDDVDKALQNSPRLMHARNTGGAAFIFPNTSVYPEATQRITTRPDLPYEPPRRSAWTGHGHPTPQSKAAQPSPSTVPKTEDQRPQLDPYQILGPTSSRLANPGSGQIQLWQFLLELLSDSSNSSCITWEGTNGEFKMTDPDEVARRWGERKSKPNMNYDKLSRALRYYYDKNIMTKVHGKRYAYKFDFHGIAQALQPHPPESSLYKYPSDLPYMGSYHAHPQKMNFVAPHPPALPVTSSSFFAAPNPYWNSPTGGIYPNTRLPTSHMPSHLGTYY
Test: Kd table of synthetic peptides on ERG; assay not given
Primed or numbered codes have the meaning given here. Where no end group is shown, it is not given here. [ ]: non-standard residue; d: D form. Pip′ = 4-methylpiperazine; βAla = NCCC(=O)O
reported-property: Kd (nM)
Could you give me the number in nM? Just the number is fine.

Examples from the recorded data:
LPPYLFT (not fully specified (N-terminus), also called more soluble version of EIP1) [LPPYLFT with 4-methylpiperazine (Pip) added]: 1700
[Pip′][βAla][βAla]PPYL-NH2 (not fully specified, also called Pip-βAβA-PPYL-NH2) [4PL-Pip2]: 3000

Query block: What does the data say about its Kd? Entry: [Pip′]PPYL (not fully specified, also called more soluble version of 4PL-A) [PPYL with 4-methylpiperazine (Pip) added]
Result block: 3300

The origin of these recorded values is patent US20180273595A1.
